Value source: patent US20240246943A1

# Test system: MDA-MB-231 breast cancer cells
# assay info: MTT cell viability assay, MDA-MB-231
# Format: cell-based
# experimental parameters: Homo sapiens, MDA-MB-231; Table 1 batch studies; MTT, 72 hours; Inactive = no measurable activity at 20 μM; read-out: IC50 Values in Breast Cancer Cell Lines, MDA-MB-231
reported property: pIC50
Formally, pIC50 is defined as -log10 of the concentration c, with c in mol/L.

The following molecules have reported results that may help.
CCCn1ccc(-c2ccccc2NC(=O)c2ccc(OCCN3CCCCC3)cc2)n1 5.24
O=C(Nc1ccccc1N1CCCC1)c1ccc(OCCCN2CCCCC2)cc1 4.31
O=C(Nc1ccccc1-c1ccn(CC2CCC2)n1)c1ccc(OCCN2CCCCC2)cc1 4.73
O=C(Nc1ccccc1-n1cccc1)c1ccc(OCCCN2CCCCC2)cc1 4.27

// query Using the record for O=C(Nc1ccccc1-c1ccn(CC(F)(F)F)n1)c1ccc(OCCN2CCCCC2)cc1 , report its pIC50.
// result 3.77
